Experiment: FRG1 promoter luciferase signal modulators, primary screen, FRG1 inhibition for FSHD, cell-based, C2C12 myotubes, firefly/Renilla luciferase, luminescence (AID 1084)
Conditions: higher = more signal, called active from +8 up or from −8 down
Property: z-score; scope: individual compounds
A bare number is all that is needed in reply.

Problem: Would you kindly share the measured z-score for N#Cc1ccc(NN2C(C(O)c3ccc(F)cc3)C=CC3C(=O)N(c4ccccc4)C(=O)C32)cc1 (stereo not drawn) ?
Solution: 0.0158

Problem: Would you kindly share the measured z-score for COC(=O)[C@@]1(Cc2ccccc2N=[N+]=[N-])N=C(c2ccc(OCCCO)cc2)O[C@H]1c1ccccc1N=[N+]=[N-] ?
Solution: -0.492

Problem: Would you kindly share the measured z-score for NCCCCCNC(=O)[C@@H]1C[C@@H]2C(=O)NCC(=O)N2[C@@H]1c1cccc(OCCO)c1 ?
Solution: 0.0981

Problem: Would you kindly share the measured z-score for CCCCN1CC=CC23O[C@@H]4/C=C\CCC(C)OC(=O)C4[C@H]2C(=O)N(C(CO)C(C)C)[C@@H]3C1=O (stereo partly drawn) ?
Solution: -0.095

Problem: Would you kindly share the measured z-score for COc1ccc(CCNC(=O)[C@@]2(Sc3ccc(C)cc3)CC(=O)N(C3Cc4ccccc4C3)[C@@H]2c2ccc(CO)cc2)cc1 ?
Solution: -3.33

Problem: Would you kindly share the measured z-score for C[C@@H]1NC(=O)[C@@]23C(=O)N[C@@H](Cc4ccccc4)C2[C@H](C)[C@@]2(C)O[C@H]2C3/C=C/C/C=C\CNC(=O)[C@@H]2CCCN2C1=O (stereo partly drawn) ?
Solution: 0.251

Problem: Would you kindly share the measured z-score for C=C(CCCC)/C(=C/C[C@@H](OC(=O)c1ccncc1)c1ccccc1OCCO)c1cnc2ccccc2c1 ?
Solution: -1.53

Problem: Would you kindly share the measured z-score for CCC(CC)C(O)C1C=CC2C(=O)N(c3ccccc3)C(=O)C2N1Nc1ccc(C(C)C)cc1 (stereo not drawn) ?
Solution: -0.963

Problem: Would you kindly share the measured z-score for COCCCNC(=O)[C@]1(CCS(=O)(=O)c2ccccc2)N=C(c2ccc(OCCCO)cc2)O[C@@H]1c1ccccc1N=[N+]=[N-] ?
Solution: 4.31

Problem: Would you kindly share the measured z-score for CCCCCCCCCCC(O)C1C=CC2C(=O)N(C)C(=O)C2N1Nc1ccc([N+](=O)[O-])cc1[N+](=O)[O-] (stereo not drawn) ?
Solution: 0.262

New cases:
Problem: Would you kindly share the measured z-score for COc1ccc(CCN2C(=O)[C@@]3(Cc4ccccc42)c2ccccc2C(=O)N(Cc2ccccc2OC)[C@H]3c2ccc(CO)cc2)cc1 ?
Solution: -1.01

Problem: Would you kindly share the measured z-score for C[N+](C)(C)CCCCCCNC(=O)[C@H]1C[C@H]2C(=O)NCC(=O)N2[C@H]1c1ccc(O)cc1 ?
Solution: 4.03

Problem: Would you kindly share the measured z-score for CC(C)N1C(=O)c2ccccc2[C@@H](C(=O)NC2CC2)[C@@H]1c1ccc(CO)cc1 ?
Solution: 0.216

Problem: Would you kindly share the measured z-score for C=CCC(OC(C)=O)[C@@H]1[C@@H](N(Cc2cc3ccccc3o2)C(=O)c2ccc(C)cc2)c2cc(OCCCO)ccc2N1C(=O)Cc1ccc(OC)cc1 (stereo partly drawn) ?
Solution: 0.443

Problem: Would you kindly share the measured z-score for C=CCC(OC(C)=O)[C@@H]1[C@@H](N(Cc2cccc3ccccc23)C(=O)Cc2ccc(OC)cc2)c2cc(OCCCO)ccc2N1C(=O)c1ccc2ccccc2n1 (stereo partly drawn) ?
Solution: -1.76
